Data provenance is PubChem BioAssay (NCI).

Test system: IGROV1 ovarian
Assay: NCI tumour cell line growth inhibition, 48 h
Residues, ends and D or L forms follow the SMILES beside them. *: point of attachment. Boc = CC(C)(C)OC(=O)*; OBn = c1ccc(CO*)cc1
Kindly state TGI for each of the entries shown.

Item under review: `SCc1ccc(CS)s1` . Reported TGI? > 100 µM

Item under review: CCOC(=O)C1=C(C)N(NC(N)=O)C(C)(O)C12CCOC2=O (centres undefined) . Reported TGI? > 100 µM

Item under review: CC(C)CC(NC(=O)OC(C)(C)C)C(=O)N1CCCC1C(=O)OCc1ccccc1 (stereo not drawn) (Boc-Leu-Pro-OBn; configuration not given here) . Reported TGI? > 100 µM

Item under review: `COC(=O)C(CBr)CBr` . Reported TGI? 25.5 µM

Item under review: `COC(=O)c1c[nH]c2c1-c1cc(C(=O)OCc3ccccc3)n(S(=O)(=O)c3ccc(C)cc3)c1C(=O)C2=O` . Reported TGI? 0.955 µM

Item under review: `CCOC(=O)/C=C/[C@H](O)[C@@H](O)/C=C/C(=O)OCC` . Reported TGI? > 100 µM

Item under review: Cc1sc(C)c2c1C(=O)CC2N (centres undefined) . Reported TGI? > 69 µM

Item under review: CC(CNCCCNCCNCCCNCO)[N+](=O)[O-] (centres undefined) . Reported TGI? 44.3 µM

Item under review: `N=C(N)c1ccc(NCCOCCNc2ccc(C(=N)N)cc2)cc1` . Reported TGI? > 100 µM

Item under review: `O=[N+]([O-])c1ccccc1C=NC12CC3CC(CC(C3)C1)C2` . Reported TGI? > 100 µM

Item under review: `CCOC(=O)c1oc2ccc([N+](=O)[O-])c3c2c1CCC3` . Reported TGI? > 100 µM

Item under review: `COc1ccc(/C=C/C(=O)CC(=O)/C=C/c2ccc(OC)cc2)cc1` . Reported TGI? > 100 µM

Item under review: `CN[C@@H](C)[C@H](N)c1ccccc1` . Reported TGI? > 100 µM

Item under review: `CC(=O)[CH-]C(=O)c1ccccc1.CC(=O)[CH-]C(=O)c1ccccc1.Cl.[O-]c1ccccn1.[O-]c1ccccn1.[Ti+4]` . Reported TGI? > 100 µM

Item under review: `CC(=O)ON1C(=O)c2cccc3cccc(c23)C1=O` . Reported TGI? > 100 µM

Item under review: Cc1ccc(C2=C(c3ccccc3)C(c3ccccc3)Oc3ccc(C)cc32)cc1 (centres undefined) . Reported TGI? 7.1 µM

Item under review: `COc1ccc(-c2cc(-c3cc(Cl)cc(Br)c3O)[nH]c(=O)n2)cc1` . Reported TGI? 52.4 µM

Item under review: `O=C1Nc2ccccc2/C1=C\c1nc(C2CCN(S(=O)(=O)c3ccc(F)cc3)CC2)n2ccccc12` . Reported TGI? > 100 µM

Item under review: `CCN(CC)C(=O)N1CCN(C=S)CC1` . Reported TGI? > 100 µM

---

System: OVCAR-8 ovarian
Assay: NCI tumour cell line growth inhibition, 48 h
Kindly state GI50 for each of the entries shown.

What GI50 appears in the records for this compound with OVCAR-8 ovarian? `Cn1c2ccccc2c2c3[nH][nH]c(=O)c3c3c4ccccc4[nH]c3c21` 2900 nM

What GI50 appears in the records for this compound with OVCAR-8 ovarian? `COc1cc2ncnc(Nc3ccc4c(cnn4Cc4ccccc4)c3)c2cc1OC` > 17500 nM

What GI50 appears in the records for this compound with OVCAR-8 ovarian? `O=C1C(=O)c2ccccc2C(O)=C1CCCc1ccc(C2CCCCCC2)cc1` 1620 nM

What GI50 appears in the records for this compound with OVCAR-8 ovarian? `CCCCNC(=O)Oc1ccc(/C(=C(/C)Cc2ccc(OC)cc2)c2ccc(OCCN3CCCC3)cc2)cc1` 2040 nM

What GI50 appears in the records for this compound with OVCAR-8 ovarian? COC(=O)/C=C1/SC(N2N=C(c3cccs3)CC2c2ccc(F)cc2)=NC1=O (stereo not given) 2590 nM
